assaySummary: Dog PK study #3 (Compound A PO once daily 5 days, 5/10/20 mg/kg; PK, body weight, hematology)
Assay type: in vivo, beagle dogs
runConditions: male, beagle, dog, plasma, po, 10 mg/kg, Day 5, 10 mg/kg dose PO; mean; read-out: AUC0-inf
measure: AUC(0-inf)

Kindly note the recorded AUC(0-inf) for Cn1cc(-c2ccccc2)c(-c2cn(C)c(=O)c3[nH]c(-c4cnn(C(F)(F)F)c4)cc23)cc1=O , which is 34100 ng·h/mL

----------
assaySummary: Dog PK study #4 (Compound A PO daily 14 days, 1/3/10 mg/kg; toxicokinetics, platelet counts)
Format: in vivo, beagle dogs
runConditions: both sexes, beagle, dog, plasma, oral; after daily administration for 14 days, 1 mg/kg, Pooled Mean, 24 h
measure: concentration at 24 h (ng/mL)
Kindly provide the numeric value in ng/mL only, without the unit symbol.

Reported concentration at 24 h for Cn1cc(-c2ccccc2)c(-c2cn(C)c(=O)c3[nH]c(-c4cnn(C(F)(F)F)c4)cc23)cc1=O was 17.7

----------
assaySummary: CIA study: pharmacokinetics / plasma concentration after oral administration
Format: in vivo, Lewis rats
runConditions: Lewis, rat, plasma, po, 3 mg/kg, CIA-induced animals, day 21, 3 mg/kg, average; read-out: AUClast (Mean)
measure: AUC(0-t) (ng·h/mL)
Value expressed in ng·h/mL; do not type the unit.

Just so you know, measured AUC(0-t) for Cn1cc(-c2ccccc2)c(-c2cn(C)c(=O)c3[nH]c(-c4cnn(C(F)(F)F)c4)cc23)cc1=O came out at 738

----------
assaySummary: Dog PK study #3 (Compound A PO once daily 5 days, 5/10/20 mg/kg; PK, body weight, hematology)
Assay type: in vivo, beagle dogs
runConditions: male, beagle, dog, plasma, po, 5 mg/kg, Day 5, 5 mg/kg dose PO; individual animals
measure: Tmax (h)
Output spec: scalar in h, unitless text.

Item: Cn1cc(-c2ccccc2)c(-c2cn(C)c(=O)c3[nH]c(-c4cnn(C(F)(F)F)c4)cc23)cc1=O | Tmax: 2

----------
assaySummary: Dog PK study #2 (Compound A IV, HPBCD formulation)
Assay type: in vivo, beagle dogs
runConditions: beagle, dog, plasma, iv, 1 mg/kg, IV 1 mg/kg, HPBCD formulation, 4 h; mean
measure: concentration at 4 h
Reply with the number, then its unit.

// sample Cn1cc(-c2ccccc2)c(-c2cn(C)c(=O)c3[nH]c(-c4cnn(C(F)(F)F)c4)cc23)cc1=O , its concentration at 4 h was 176 ng/mL

----------
assaySummary: Rat PK study #2 (Compound A PO 5 mg/kg, DMSO/PEG-400/water)
Type: in vivo, SD rats
runConditions: male, SD, rat, plasma, po, 5 mg/kg, SD rats, PO 5 mg/kg, DMSO/PEG-400/Milli-Q water formulation, 4 h, mean of 3 animals
measure: concentration at 4 h (ng/mL)
Numbers only; they are read as ng/mL.

concentration at 4 h measured on Cn1cc(-c2ccccc2)c(-c2cn(C)c(=O)c3[nH]c(-c4cnn(C(F)(F)F)c4)cc23)cc1=O = 395

----------
testedOn: BRD4 BD2 (Homo sapiens, UniProt O60885)
Construct: HEK293 cells were transfected using NanoLuc-BRD4-BD1 or NanoLuc-BRD4-BD2 fusion vectors
assaySummary: NanoBRET bromodomain assay, NanoLuc-BRD4-BD2 in HEK293 cells
Format: binding
runConditions: IC50 BD1/IC50 BD2; qualitative if an IC50 is at the upper limit
measure: Fold Selectivity BRD4 BD1/BD2

// solved cases for Fold Selectivity BRD4 BD1/BD2 follow
>  <substanceSmiles>
Cn1cc(-c2ccccc2)c(-c2cn(C)c(=O)c3[nH]c(-c4cccc(S(C)(=O)=O)c4)cc23)cc1=O

>  <testedOn>
BRD4 BD2 (Homo sapiens, UniProt O60885)

>  <readoutValue>
xx (Fold >50 and ≤200)

$$$$
>  <substanceSmiles>
CC(C)n1cc(-c2cc3c(-c4cc(=O)n(C)cc4-c4cccc(OCCO)c4)cn(C)c(=O)c3[nH]2)cn1

>  <testedOn>
BRD4 BD2 (Homo sapiens, UniProt O60885)

>  <readoutValue>
x (Fold >2 and ≤50)

$$$$
>  <substanceSmiles>
Cc1cc(-c2cc3c(-c4cc(=O)n(C)cc4-c4ccc5c(c4)COC5)cn(C)c(=O)c3[nH]2)cc(C)n1.Cl

>  <testedOn>
BRD4 BD2 (Homo sapiens, UniProt O60885)

>  <readoutValue>
xxxx (Fold >1000)

$$$$
>  <substanceSmiles>
Cc1cc(-c2cc3c(-c4cc(=O)n(C)cc4-c4cccc(S(C)(=O)=O)c4)cn(C)c(=O)c3[nH]2)cc(C)n1

>  <testedOn>
BRD4 BD2 (Homo sapiens, UniProt O60885)

>  <readoutValue>
xx (Fold >50 and ≤200)

$$$$

Measured Fold Selectivity BRD4 BD1/BD2, CC(C)c1cc(-c2cc3c(-c4cc(=O)n(C)cc4-c4ccccc4)cn(C)c(=O)c3[nH]2)ccc1F : xx (Fold >50 and ≤200)

Value of measured Fold Selectivity BRD4 BD1/BD2 for the entry COCc1cccc(-c2cn(C)c(=O)cc2-c2cn(C)c(=O)c3[nH]c(-c4cnn(C(F)(F)F)c4)cc23)c1 : xxxx (Fold >1000)

The reported Fold Selectivity BRD4 BD1/BD2 of the compound Cn1cc(-c2ccccc2)c(-c2cn(C)c(=O)c3[nH]c(-c4cccnc4)cc23)cc1=O was xx (Fold >50 and ≤200)

Fold Selectivity BRD4 BD1/BD2 recorded for this compound, Cn1cc(-c2ccccc2C(F)F)c(-c2cn(C)c(=O)c3[nH]c(-c4ccc(F)cc4F)cc23)cc1=O , is x (Fold >2 and ≤50)

The compound listed as CC(C)n1cc(-c2cc3c(-c4cc(=O)n(C)cc4-c4cccc(CS(C)(=O)=O)c4)cn(C)c(=O)c3[nH]2)cn1 shows Fold Selectivity BRD4 BD1/BD2 equal to x (Fold >2 and ≤50)

// Fold Selectivity BRD4 BD1/BD2 value for Cn1cc(-c2cccc(CS(C)(=O)=O)c2)c(-c2cn(C)c(=O)c3[nH]c(-c4ccc(F)cc4F)cc23)cc1=O : xx (Fold >50 and ≤200)

Per the record, COCCn1cc(-c2ccccc2)c(-c2cn(C)c(=O)c3[nH]c(-c4cnn(C(F)(F)F)c4)cc23)cc1=O has Fold Selectivity BRD4 BD1/BD2 of xxxx (Fold >1000)

Note to self: Fold Selectivity BRD4 BD1/BD2 recorded for Cc1cccc(C)c1Oc1cn(C)c(=O)cc1-c1cn(C)c(=O)c2[nH]c(-c3cn(CC(F)(F)F)nc3C)cc12 was xx (Fold >50 and ≤200)

GET /value?item= Cc1cccc(C)c1Oc1cn(C)c(=O)cc1-c1cn(C)c(=O)c2[nH]c(-c3cnc(C(C)C)s3)cc12 &field=Fold Selectivity BRD4 BD1/BD2 returns xxxx (Fold >1000)

----------
assaySummary: Dog PK study #3 (Compound A PO once daily 5 days, 5/10/20 mg/kg; PK, body weight, hematology)
Type: in vivo, beagle dogs
runConditions: male, beagle, dog, plasma, po, 10 mg/kg, Day 5, 10 mg/kg dose PO; individual animals; read-out: MRT0-inf
measure: MRT inf (h)
Express it in h; write the number only.

Measured MRT inf of Cn1cc(-c2ccccc2)c(-c2cn(C)c(=O)c3[nH]c(-c4cnn(C(F)(F)F)c4)cc23)cc1=O : 11.3

----------
assaySummary: Rat PK study #2 (Compound A PO 5 mg/kg, DMSO/PEG-400/water)
Type: in vivo, SD rats
runConditions: male, Sprague-Dawley, rat, plasma, po, 5 mg/kg, SD rats, PO 5 mg/kg, DMSO/PEG-400/Milli-Q water formulation, mean of 3 animals
measure: AUC(0-t) (ng·h/mL)
Give the quantity in ng·h/mL, number only.

Per the record, Cn1cc(-c2ccccc2)c(-c2cn(C)c(=O)c3[nH]c(-c4cnn(C(F)(F)F)c4)cc23)cc1=O has AUC(0-t) of 4920

----------
assaySummary: CIA study: pharmacokinetics / plasma concentration after oral administration
Format: in vivo, Lewis rats
runConditions: Lewis, rat, plasma, po, 3 mg/kg, CIA-induced animals, day 21, 3 mg/kg, average; read-out: Tmax (Mean)
measure: Tmax (h)
Express the result in h but write the number alone.

Measured Tmax of Cn1cc(-c2ccccc2)c(-c2cn(C)c(=O)c3[nH]c(-c4cnn(C(F)(F)F)c4)cc23)cc1=O : 5.33

----------
assaySummary: Rat PK study #1 (Compound A PO, methylcellulose vs propylene glycol formulation)
Type: in vivo, Lewis rats
runConditions: male, Lewis, rat, plasma, po, 10 mg/kg, Lewis rats, PO 10 mg/kg, 1% methylcellulose formulation, mean of 3 animals
measure: AUC(0-t) (ng·h/mL)
Just the number please, in ng·h/mL, no unit attached.

Lab note: measured AUC(0-t) of Cn1cc(-c2ccccc2)c(-c2cn(C)c(=O)c3[nH]c(-c4cnn(C(F)(F)F)c4)cc23)cc1=O was 694

Cited source: patent US20260217701A1
